pIC50: −log10 of the molar value.
Quick note: these are pIC50 numbers for system: PDGFRB (Homo sapiens, UniProt P09619)
Sequence (P09619 33-1106): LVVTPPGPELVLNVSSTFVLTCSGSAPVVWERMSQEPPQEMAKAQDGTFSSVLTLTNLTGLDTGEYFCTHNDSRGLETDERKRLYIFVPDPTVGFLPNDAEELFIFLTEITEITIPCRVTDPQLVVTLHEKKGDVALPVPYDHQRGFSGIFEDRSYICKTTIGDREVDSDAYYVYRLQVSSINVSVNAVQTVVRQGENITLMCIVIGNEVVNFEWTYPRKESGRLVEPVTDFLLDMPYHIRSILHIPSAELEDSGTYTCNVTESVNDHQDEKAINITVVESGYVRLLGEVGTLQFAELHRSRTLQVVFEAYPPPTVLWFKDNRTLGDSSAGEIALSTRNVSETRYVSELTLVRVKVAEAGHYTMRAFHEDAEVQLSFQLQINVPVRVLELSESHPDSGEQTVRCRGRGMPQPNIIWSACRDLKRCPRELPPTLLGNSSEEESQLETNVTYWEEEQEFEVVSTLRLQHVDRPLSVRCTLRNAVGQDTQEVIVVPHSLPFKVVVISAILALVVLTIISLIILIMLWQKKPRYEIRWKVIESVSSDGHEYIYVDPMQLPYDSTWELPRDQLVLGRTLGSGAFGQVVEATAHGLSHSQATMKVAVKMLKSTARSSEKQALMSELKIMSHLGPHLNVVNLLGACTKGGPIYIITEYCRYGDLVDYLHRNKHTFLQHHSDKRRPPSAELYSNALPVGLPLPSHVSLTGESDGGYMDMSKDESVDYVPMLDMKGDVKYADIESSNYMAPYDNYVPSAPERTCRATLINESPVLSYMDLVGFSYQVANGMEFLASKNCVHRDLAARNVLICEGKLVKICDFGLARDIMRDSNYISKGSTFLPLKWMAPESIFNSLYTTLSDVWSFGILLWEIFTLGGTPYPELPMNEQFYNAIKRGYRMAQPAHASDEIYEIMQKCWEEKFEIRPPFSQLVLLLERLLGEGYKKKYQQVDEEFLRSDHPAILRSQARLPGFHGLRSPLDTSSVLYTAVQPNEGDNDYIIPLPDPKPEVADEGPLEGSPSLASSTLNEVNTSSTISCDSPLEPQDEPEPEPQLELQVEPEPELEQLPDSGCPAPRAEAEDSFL

# COMPOUND, TARGET_OR_TEST_SYSTEM, pIC50
rows = [
    ("CCC1NC(=O)c2cc3c(Oc4ccc(NC(=S)NC5CC5)c(Cl)c4)ccnc3cc2O1 (centres unmarked) [Example 173]", "PDGFRB (Homo sapiens, UniProt P09619)", "6.00 to 6.70"),
]

## Input Quick check: pIC50 on PDGFRB (Homo sapiens, UniProt P09619), item Cc1c(OCC(C)O)cn2ncnc(Oc3ccc(NC(=S)NC4CC4)c(Cl)c3)c12 (centres unmarked) [Example 25] ?
## Output 6.00 to 6.70

## Input Identify the measured pIC50 of COc1cc2nccc(Oc3ccc4nc(NCC(F)F)sc4c3)c2cc1C(N)=O [Example 157] for PDGFRB (Homo sapiens, UniProt P09619).
## Output 6.00 to 6.70

## Input What pIC50 appears in the records for this compound with PDGFRB (Homo sapiens, UniProt P09619)? COc1cc2nccc(Oc3ccc4oc(C(=O)NC5CC5)cc4c3)c2cc1C(N)=O [Example 191]
## Output 6.00 to 6.70

## Input # returns recorded pIC50 (system: PDGFRB (Homo sapiens, UniProt P09619)) for COc1cc2nccc(Oc3ccc4oc(C(=O)N5CC(F)(F)C5)cc4c3)c2cc1C(N)=O [Example 190]
## Output 6.00 to 6.70

## Input Provide the documented pIC50 with PDGFRB (Homo sapiens, UniProt P09619) as the system for COc1cc2nccc(Oc3ccc4c(C(=O)N5CC(F)(F)C5)coc4c3)c2cc1C(N)=O [Example 187]
## Output 6.00 to 6.70

## Input Item: COc1cc2nccc(Oc3ccc(NC(=S)NC4CC4)c(Cl)c3F)c2cc1C(N)=O [Example 78] Test system: PDGFRB (Homo sapiens, UniProt P09619) Read-out: pIC50 Value: ?
## Output > 7.30

## Input API: value(readout=pIC50, system=PDGFRB (Homo sapiens, UniProt P09619)) for record Cn1cnc(-c2ccc3c(Oc4ccc(NC(=O)N5CC(F)(F)C5)c(Cl)c4F)ccnc3c2)c1 [Example 218]
## Output > 7.30

----------
PDGFRB (Homo sapiens, UniProt P09619) IC50 data

# COMPOUND, IC50
records = [
    ("COCCNC(=O)c1cc2c(Oc3ccc(NC(=S)NC4CC4)c(Cl)c3)ccnc2cc1OC", "0.2 to 1 µM"),
]

## Input What IC50 appears in the records for this compound with PDGFRB (Homo sapiens, UniProt P09619)? COc1ccc2c(Oc3ccc(NC(=S)N4CC(F)(F)C4)c(Cl)c3)ccnc2c1
## Output 0.2 to 1 µM

## Input Query the reported IC50 for PDGFRB (Homo sapiens, UniProt P09619); item: COc1cc2nccc(Oc3ccc4c(C(=O)N5CC[C@H](O)C5)coc4c3)c2cc1C(N)=O
## Output 0.05 to 0.2 µM

## Input Observed IC50 on PDGFRB (Homo sapiens, UniProt P09619) for COc1cc2nccc(Oc3ccc(NC(=S)Nc4ccc(Cl)c(F)c4)c(Cl)c3)c2cc1C(N)=O , please.
## Output 0.2 to 1 µM

## Input Look up IC50 with PDGFRB (Homo sapiens, UniProt P09619) for this compound: COc1cc2nccc(Oc3ccc(NC(=S)N(C)C)c(Cl)c3)c2cc1C(N)=O
## Output 0.2 to 1 µM

## Input Give PDGFRB (Homo sapiens, UniProt P09619) IC50 for COc1cc2nccc(Oc3ccc(NC(=S)N4CC[C@@H](O)C4)c(Cl)c3F)c2cc1C(N)=O
## Output 0.2 to 1 µM

## Input GET /values?readout=IC50&system=PDGFRB (Homo sapiens, UniProt P09619)&item= COc1cc2nccc(Oc3ccc(NC(=S)NC4CC4)c(Cl)c3)c2cc1C(=O)NCC(F)(F)F
## Output 0.2 to 1 µM

## Input Request - read-out IC50 | tested on PDGFRB (Homo sapiens, UniProt P09619) | compound COc1cc2nccc(Oc3ccc(NC(=S)NC4CC(O)C4)c(Cl)c3)c2cc1C(N)=O (stereo not shown)
## Output 0.05 to 0.2 µM

## Input Which measured IC50 belongs to CCCNc1c(Nc2ccc(Oc3ccnc4cc(OC)c(C(N)=O)cc34)cc2Cl)c(=O)c1=O , tested on PDGFRB (Homo sapiens, UniProt P09619)?
## Output 0.2 to 1 µM

## Input PDGFRB (Homo sapiens, UniProt P09619) / IC50 / COc1cc2nccc(Oc3ccc4nc(NCc5cccc(C(F)(F)F)c5)sc4c3)c2cc1C(N)=O : value?
## Output 0.2 to 1 µM
